Form field: enrichment (one value per entry).
B1: peptide HD2 (from tick evasin EVA4) / CCL22 (biotinylated, synthetic) (parent)
chain 1: EEDDYTAYAPLTCYFT
chain 2: GPYGANMEDSVCCRDYVRYRLPLRVVKHFYWTSDSCPRPGVVLLTFRDKEICADPRVPWVKMILNKLSQ

# Variants of: B1
# protocol_conditions: with CCL22 (biotinylated, synthetic); scale: log2
assay_metric: enrichment

| mutation_id | reported |
| --- | --- |
| chain 1 Y8R | -8.18 |
| chain 1 C13Q | -9.37 |
| chain 1 Y5R | -7.05 |
| chain 1 A7C | -9.84 |
| chain 1 Y5P | -6.73 |
| chain 1 Y8M | -8.49 |
| chain 1 Y8H | -7.57 |
| chain 1 Y8T | -8.48 |
| chain 1 P10I | -8.44 |
| chain 1 A9C | -10.1 |
| chain 1 P10C | -9.72 |
| chain 1 D3R | -7.45 |
| chain 1 A9D | -8.23 |
| chain 1 P10T | -7.86 |
| chain 1 Y8N | -8.13 |
| chain 1 Y5K | -5.6 |
| chain 1 Y8G | -8.71 |
| chain 1 Y8I | -9.38 |
| chain 1 P10R | -9.08 |
| chain 1 P10N | -8.02 |
| chain 1 D4H | -7.77 |
| chain 1 Y5Q | -5.36 |
